Values from the supplement of paper PMC10307832

Tested on: NCI-H838
protocol notes: relative viability (nuclei count vs DMSO), 5 days (fraction); higher = more cells survive
experimental conditions: first compound 8 µM
measured attribute: relative viability
Give bare numbers.

C=C1C(=O)O[C@@H](CCCCCCCC)[C@@H]1C(=O)O [C-75] + CC(=O)c1c(C)c2cnc(Nc3ccc(N4CCNCC4)cn3)nc2n(C2CCCC2)c1=O [Palbociclib] (partner 0.5 µM); 0.206

# batch: return relative viability for each of the 2 compounds below
1. C=C1C(=O)O[C@@H](CCCCCCCC)[C@@H]1C(=O)O [C-75] + Cc1nc(NC(=O)N2CCC[C@H]2C(N)=O)sc1-c1ccnc(C(C)(C)C(F)(F)F)c1 [Alpelisib] (partner 2 µM)
2. C=C1C(=O)O[C@@H](CCCCCCCC)[C@@H]1C(=O)O [C-75] + C[C@]1(O)C[C@@H](c2nc(-c3ccc4ccc(-c5ccccc5)nc4c3)c3c(N)nccn32)C1 [Linsitinib] (partner 1 µM)

[0.919, 0.836]

----------
System: LU99A
protocol notes: relative viability (nuclei count vs DMSO), 5 days (fraction); higher = more cells survive
experimental conditions: first compound 0.3162 µM
Rule: measured relative viability below 0.4 gets met; anything equal to or greater than 0.4 gets not met.

Answered cases to consult:
NC(=O)Nc1cc(-c2cccc(F)c2)sc1C(=O)N[C@H]1CCCNC1 [AZD7762] + CS(=O)(=O)N1CCN(Cc2cc3nc(-c4cccc5[nH]ncc45)nc(N4CCOCC4)c3s2)CC1 [Pictilisib] (partner 1 µM); met
NC(=O)Nc1cc(-c2cccc(F)c2)sc1C(=O)N[C@H]1CCCNC1 [AZD7762] + Cc1nc(Nc2ncc(C(=O)Nc3c(C)cccc3Cl)s2)cc(N2CCN(CCO)CC2)n1 [Dasatinib] (partner 0.075 µM); not met
NC(=O)Nc1cc(-c2cccc(F)c2)sc1C(=O)N[C@H]1CCCNC1 [AZD7762] + N=C(N)NC(=N)NCCc1ccccc1 [Phenformin] (partner 250 µM); not met
NC(=O)Nc1cc(-c2cccc(F)c2)sc1C(=O)N[C@H]1CCCNC1 [AZD7762] + COc1cc2c(Oc3ccc(NC(=O)C4(C(=O)Nc5ccc(F)cc5)CC4)cc3F)ccnc2cc1OCCCN1CCOCC1 [Foretinib] (partner 0.25 µM); not met
NC(=O)Nc1cc(-c2cccc(F)c2)sc1C(=O)N[C@H]1CCCNC1 [AZD7762] + COc1cccc2cc(-c3nc([C@H]4CC[C@H](C(=O)O)CC4)n4ncnc(N)c34)[nH]c12 [OSI-027] (partner 0.5 µM); met

Problem: For the compound NC(=O)Nc1cc(-c2cccc(F)c2)sc1C(=O)N[C@H]1CCCNC1 [AZD7762] + O=C(CCCCCCC(=O)Nc1ccccc1)NO [Vorinostat] (partner 1 µM) , is relative viability under 0.4?
met

Record NC(=O)Nc1cc(-c2cccc(F)c2)sc1C(=O)N[C@H]1CCCNC1 [AZD7762] + Nc1ncn([C@H]2C[C@H](O)[C@@H](CO)O2)c(=O)n1 [Decitabine] (partner 2 µM) : is its relative viability strictly below 0.4?
not met

Hello, I'm reviewing records and need to know if relative viability of NC(=O)Nc1cc(-c2cccc(F)c2)sc1C(=O)N[C@H]1CCCNC1 [AZD7762] + Cc1cc(Nc2cc(N3CCN(C)CC3)nc(Sc3ccc(NC(=O)C4CC4)cc3)n2)n[nH]1 [Tozasertib] (partner 0.1 µM) is below 0.4. Could you check?
met
